assay: in vitro; conditions: human, hepg2-a16-cd81egfp cells, % viability; note: reference of the scale not given here
hey, just use YES if measured viability at 3 µM is less than 90%, otherwise NO

Example cases with answers are listed next.
> print(dat)
                                   molecule  class.name
1  COc1cc(O)c(C(CCN2CCCC(C)C2)c2ccc3c(c2)OCO3)c(OC)c1 (stereo not drawn)          NO
2            CC1(C)Cc2ccccc2C2=NNC(=O)C2=N1          NO
3  CCCC(C)C(=O)Nc1ncc(S(=O)(=O)c2ccc([N+](=O)[O-])cc2)s1 (stereo not drawn)          NO

Incoming: Lab note: confirm whether the reported viability at 3 µM for this molecule is below 90%, equality not counting. molecule: "Clc1ccccc1C(c1ccccc1)(c1ccccc1)n1ccnc1"
Outgoing: NO

Incoming: Lab note: confirm whether the reported viability at 3 µM for this molecule is below 90%, equality not counting. molecule: "Cc1cc(Nc2cccc(Cl)c2)nc(NCc2ccccc2)n1"
Outgoing: YES

Where these numbers come from: paper PMC7822874
